# System: HT-29
# protocol: Cytotoxicity against human HT-29 cells at 1 uM after 72 hrs by MTT assay
# Format: functional
# test.settings: HT-29, 72 h, read-out: GI
quantity.kind: inhibition of growth at 1 µM (%)
The response must be a number in % with no trailing unit.

COC(=O)O[C@H]1C(=O)[C@]2(C)[C@@H](OC)C[C@H]3OC[C@@]3(OC(C)=O)[C@H]2[C@H](OC(=O)c2ccccc2)[C@]2(O)C[C@H](OC(=O)[C@H](O)[C@@H](NC(=O)c3ccccc3)c3ccccc3)C(C)=C1C2(C)C has a reported inhibition of growth at 1 µM of 88.8

Entry CO[C@H]1C(=O)[C@]2(C)[C@@H](OC(=O)N(C)C)C[C@H]3OC[C@@]3(OC(C)=O)[C@H]2[C@H](OC(=O)c2ccccc2)[C@]2(O)C[C@H](OC(=O)[C@H](O)[C@@H](NC(=O)OC(C)(C)C)c3ccccc3)C(C)=C1C2(C)C — recorded inhibition of growth at 1 µM = 89.8

Recorded result, CO[C@H]1C(=O)[C@]2(C)[C@@H](OC)C[C@H]3OC[C@@]3(OC(C)=O)[C@H]2[C@H](OC(=O)c2ccccc2)[C@]23OC(=O)O[C@H]2[C@H](OC(=O)[C@H](O)[C@@H](NC(=O)c2ccccc2)c2ccccc2)C(C)=C1C3(C)C , inhibition of growth at 1 µM: 89.4

inhibition of growth at 1 µM measured on CO[C@H]1C(=O)[C@]2(C)CC[C@H]3OC[C@@]3(OC(C)=O)[C@H]2[C@H](OC(=O)c2ccccc2)[C@]23OC(=O)O[C@H]2[C@H](OC(=O)[C@H](O)[C@@H](NC(=O)OC(C)(C)C)c2ccccc2)C(C)=C1C3(C)C = 87.3

###

# Tested on: A-375
# protocol: Cytotoxicity against human A375 cells at 1 uM after 72 hrs by MTT assay
# Format: functional
# test.settings: A-375, 72 h, read-out: GI
Hi there, I'd appreciate the recorded inhibition of growth at 1 µM for every entry that follows.
Answer in %, number only, no unit symbol.

# compound CC(=O)O[C@H]1C(=O)[C@@]2(C)[C@H]([C@H](OC(=O)c3ccccc3)[C@]34OC(=O)O[C@H]3[C@H](OC(=O)[C@H](O)[C@H](CC(C)C)NC(=O)OC(C)(C)C)C(C)=C1C4(C)C)[C@]1(OC(C)=O)CO[C@@H]1C[C@@H]2O ; its inhibition of growth at 1 µM = 96.7

Noted for CO[C@H]1C(=O)[C@]2(C)[C@@H](OC(=O)N(C)C)C[C@H]3OC[C@@]3(OC(C)=O)[C@H]2[C@H](OC(=O)c2ccccc2)[C@]2(O)C[C@H](OC(=O)[C@H](O)[C@@H](NC(=O)c3ccccc3)c3ccccc3)C(C)=C1C2(C)C : its inhibition of growth at 1 µM reads 88.4

Form field inhibition of growth at 1 µM, entry COC(=O)O[C@H]1C(=O)[C@]2(C)[C@@H](OC)C[C@H]3OC[C@@]3(OC(C)=O)[C@H]2[C@H](OC(=O)c2ccccc2)[C@]2(O)C[C@H](OC(=O)[C@H](O)[C@@H](NC(=O)c3ccccc3)c3ccccc3)C(C)=C1C2(C)C : 94.2

Query CO[C@H]1C(=O)[C@@]2(C)[C@H]([C@H](OC(=O)c3ccccc3)[C@]34OC(=O)O[C@H]3[C@H](OC(=O)[C@H](O)[C@@H](NC(=O)OC(C)(C)C)c3ccccc3)C(C)=C1C4(C)C)[C@]1(OC(C)=O)CO[C@@H]1C[C@@H]2O yields inhibition of growth at 1 µM of 92.5
